Tested on: Staphylococcus aureus
Method: microbe, parasite or virus in culture
Assay type: functional
Measurement Parameters: ATCC 6538P
Description: Antibacterial activity against Staphylococcus aureus ATCC 6538p by agar-dilution method
# t = MIC below 6 µg/mL (exclusive); f = MIC at/above 6 µg/mL

Compound: O=C(O)c1cn(C2CC2)c2cc(N3CCN(C/C(=N\O)c4ccccc4Cl)CC3)c(F)cc2c1=O
Label Class: t
//
Compound: CCn1cc(C(=O)O)c(=O)c2cc(F)c(N3CCN(C/C(=N\OC)c4ccc(Cl)cc4Cl)CC3)nc21
Label Class: f
//
Compound: CCn1cc(C(=O)O)c(=O)c2cc(F)c(N3CCN(C/C(=N\OC)c4ccc(F)cc4F)CC3)cc21
Label Class: f
//
Compound: CCn1cc(C(=O)O)c(=O)c2cc(F)c(N3CCNCC3)nc21 [ENOXACIN]
Label Class: t
//
Compound: CCn1cc(C(=O)O)c(=O)c2cc(F)c(N3CCN(C/C(=N\OC)c4ccccc4)CC3)cc21
Label Class: f
//
Compound: CCn1cc(C(=O)O)c(=O)c2cc(F)c(N3CCN(C/C(=N\OC)c4ccc(Cl)cc4Cl)CC3)cc21
Label Class: f
//
Compound: CO/N=C(\CN1CCN(c2cc3c(cc2F)c(=O)c(C(=O)O)cn3C2CC2)CC1)c1ccc(F)cc1F
Label Class: f
//
Compound: CCn1cc(C(=O)O)c(=O)c2cc(F)c(N3CCN(C/C(=N\OC)c4ccc(F)cc4F)CC3)nc21
Label Class: f
//
Compound: CO/N=C(\CN1CCN(c2cc3c(cc2F)c(=O)c(C(=O)O)cn3C2CC2)CC1)c1ccccc1Cl
Label Class: t
//
Compound: O=C(CN1CCN(c2cc3c(cc2F)c(=O)c(C(=O)O)cn3C2CC2)CC1)c1ccccc1Cl
Label Class: t
//
Compound: O=C(O)c1cn(C2CC2)c2cc(N3CCN(C/C(=N\O)c4ccc(Cl)cc4)CC3)c(F)cc2c1=O
Label Class: t
//
Compound: O=C(O)c1cn(C2CC2)c2cc(N3CCNCC3)c(F)cc2c1=O [CIPROFLOXACIN]
Label Class: t
//
Compound: CCn1cc(C(=O)O)c(=O)c2cc(F)c(N3CCNCC3)cc21 [NORFLOXACIN]
Label Class: t
//
Compound: CO/N=C(\CN1CCN(c2cc3c(cc2F)c(=O)c(C(=O)O)cn3C2CC2)CC1)c1ccc(Cl)cc1
Label Class: t
//
Compound: CCn1cc(C(=O)O)c(=O)c2cc(F)c(N3CCN(C/C(=N\OC)c4ccc(F)cc4)CC3)nc21
Label Class: f
//
Compound: CO/N=C(\CN1CCN(c2cc3c(cc2F)c(=O)c(C(=O)O)cn3C2CC2)CC1)c1ccc(F)cc1
Label Class: f
//
Compound: CO/N=C(\CN1CCN(c2cc3c(cc2F)c(=O)c(C(=O)O)cn3C2CC2)CC1)c1ccccc1
Label Class: f
//
Compound: CCn1cc(C(=O)O)c(=O)c2cc(F)c(N3CCN(C/C(=N\OC)c4ccc(F)cc4)CC3)cc21
Label Class: f

Cited source for all entries: ChEMBL document CHEMBL1138103
